test system: Micrococcus luteus; test: Antimicrobial activity against Micrococcus luteus at 1 mg/ml incubated for 20 to 30 mins followed by incubation for 24 hrs at 37 degC by agar plate method; assay type: functional
The source made the active and inactive calls. The calls are words filed in the database; no cut-off is given here.
EXPERIMENTAL_ENDPOINT: diameter of the inhibition zone (DIZ)

Sample answers from the record:
Fc1ccc(-c2cn(Cc3cn(-c4ccccc4)nc3-c3ccccc3)nn2)cc1 | inactive
Cc1ccc(-n2cc(CN=[N+]=[N-])c(-c3ccccc3)n2)cc1C | inactive
COC(=O)c1nnn(Cc2cn(-c3ccc(C)cc3)nc2-c2ccccc2)c1C(=O)OC | inactive
COC(=O)c1nnn(Cc2cn(-c3ccccc3)nc2-c2ccc(Cl)cc2)c1C(=O)OC | inactive
FC(F)(F)c1ccccc1-c1cn(Cc2cn(-c3ccccc3)nc2-c2ccccc2)nn1 | inactive

Which diameter of the inhibition zone (DIZ) is reported for this compound? Cc1ccc(-c2nn(-c3ccccc3)cc2CN=[N+]=[N-])cc1
inactive

Which diameter of the inhibition zone (DIZ) is reported for this compound? Cc1ccc(-n2cc(CN=[N+]=[N-])c(-c3ccccc3)n2)cc1
inactive

Which diameter of the inhibition zone (DIZ) is reported for this compound? Brc1ccc(-c2cn(Cc3cn(-c4ccccc4)nc3-c3ccccc3)nn2)cc1
inactive

Which diameter of the inhibition zone (DIZ) is reported for this compound? Cc1ccc(-c2nn(-c3ccccc3)cc2Cn2cc(-c3ccccc3)nn2)cc1
inactive

Which diameter of the inhibition zone (DIZ) is reported for this compound? CCOC(=O)c1nnn(Cc2cn(-c3ccccc3)nc2-c2ccccc2)c1C(=O)OCC
inactive

Which diameter of the inhibition zone (DIZ) is reported for this compound? CN(C)c1ccc(-c2cn(Cc3cn(-c4ccccc4)nc3-c3ccccc3)nn2)cc1
inactive

Which diameter of the inhibition zone (DIZ) is reported for this compound? Clc1ccc(-c2nn(-c3ccccc3)cc2Cn2cc(-c3ccccc3)nn2)cc1
inactive

====

test system: U-937; assay: Anti-inflammatory activity in human U937 cells assessed as inhibition of LPS-induced TNFalpha production pre-incubated for 1 hr before LPS stimulation for 24 hrs by ELISA method; format: functional, cell-based
The compounds listed here are annotated with their IC50.
Lab book: enter the figure in µM, no units written.

COc1ccc(C2CNC(=O)C2)cc1OC1CCCC1 (configuration not stated) [ROLIPRAM] | 1.12
Cc1ccc(-n2cc(Cn3cc(CO)nn3)c(-c3ccccc3)n2)cc1 | 21.4
OCc1cn(Cc2cn(-c3ccccc3)nc2-c2ccc(Cl)cc2)nn1 | 30.9

Now examine the next entry.
Hi! What's the reported IC50 for COc1ccc(-c2nn(-c3ccccc3)cc2Cn2cc(CO)nn2)cc1 on U-937?
17.2

====

system: Salmonella typhi; experiment: Antimicrobial activity against Salmonella typhi incubated for 12 to 16 hrs followed by plating in nutrient agar by tube dilution method; type: functional; details: Salmonella enterica subsp. enterica serovar Typhi
Calls of active or inactive are those of the source. The rule behind the calls is not given here.
EXPERIMENTAL_ENDPOINT: MBC

Clc1ccc(-c2cn(Cc3cn(-c4ccccc4)nc3-c3ccccc3)nn2)cc1 | inactive
Nc1ccc(-c2cn(Cc3cn(-c4ccccc4)nc3-c3ccccc3)nn2)cc1 | inactive
COC(=O)c1nnn(Cc2cn(-c3ccccc3)nc2-c2ccc(Cl)cc2)c1C(=O)OC | inactive
COc1ccc(-c2nn(-c3ccccc3)cc2CN=[N+]=[N-])cc1 | inactive
CCOC(=O)c1nnn(Cc2cn(-c3ccc(C)cc3)nc2-c2ccccc2)c1C(=O)OCC | inactive

Hi! What's the reported MBC for Clc1ccc(-c2nn(-c3ccccc3)cc2Cn2cc(-c3ccccc3)nn2)cc1 on Salmonella typhi?
inactive

Hi! What's the reported MBC for Cc1ccc(-c2nn(-c3ccccc3)cc2Cn2cc(-c3ccccc3)nn2)cc1 on Salmonella typhi?
inactive

Hi! What's the reported MBC for COC(=O)c1nnn(Cc2cn(-c3ccccc3)nc2-c2ccc(OC)cc2)c1C(=O)OC on Salmonella typhi?
inactive

Hi! What's the reported MBC for COC(=O)c1nnn(Cc2cn(-c3ccccc3)nc2-c2ccccc2)c1C(=O)OC on Salmonella typhi?
inactive

Hi! What's the reported MBC for CCOC(=O)c1nnn(Cc2cn(-c3ccccc3)nc2-c2ccc(OC)cc2)c1C(=O)OCC on Salmonella typhi?
inactive
